The reported measurements were obtained from the NIST ThermoML archive (doi:10.1016/j.fluid.2012.11.003).

assay: activity coefficient (dimensionless); of the first substance listed, at infinite dilution; xn = mol fraction of the nth substance listed; conditions: 343.15 K; 101 kPa; Liquid; dilutor technique; x1 = 0
Categories are assigned from the measured activity coefficient using these intervals: label 0: < 0.3; label 1: ≥ 0.3 and < 0.8; label 2: ≥ 0.8

In: Record CCO [ethanol] + CCn1cc[n+](C)c1.COS(=O)(=O)[O-] — which class?
Out: label 1

In: Repeat for the following compound: CC(C)O [propan-2-ol] + CCOS(=O)(=O)[O-].CCn1cc[n+](C)c1
Out: label 2

New cases:
In: // bin(item) where item = CO [methanol] + CCOS(=O)(=O)[O-].CCn1cc[n+](C)c1
Out: label 1

In: Please give the result for CCCO [propan-1-ol] + CCn1cc[n+](C)c1.COS(=O)(=O)[O-] too.
Out: label 2

In: Item: CCO [ethanol] + CCn1cc[n+](C)c1.O=S(=O)([O-])O
Out: label 0

In: Next compound up: CC(C)O [propan-2-ol] + CCn1cc[n+](C)c1.O=S(=O)([O-])O
Out: label 0

In: Also, CCC(C)O (stereo not given) [butan-2-ol] + CCn1cc[n+](C)c1.O=S(=O)([O-])O please.
Out: label 1

====

Consider the following compounds; for each one, report its activity coefficient.
assay: activity coefficient (dimensionless); of the first substance listed, at infinite dilution; xn = mol fraction of the nth substance listed; details: 353.15 K; 101 kPa; Liquid; dilutor technique; x1 = 0

In: # input compound: CCCO [propan-1-ol] + CCn1cc[n+](C)c1.O=S(=O)([O-])O ; wanted: its activity coefficient
Out: 0.196

In: Entry CCCCO [butan-1-ol] + CCn1cc[n+](C)c1.COS(=O)(=O)[O-] please
Out: 1.74

In: Item: CC(C)O [propan-2-ol] + CCOS(=O)(=O)[O-].CCn1cc[n+](C)c1
Out: 0.966

In: Subsequent entry: CC(C)O [propan-2-ol] + CCn1cc[n+](C)c1.COS(=O)(=O)[O-]
Out: 0.84

In: Subsequent entry: CCO [ethanol] + CCn1cc[n+](C)c1.O=S(=O)([O-])O
Out: 0.116

Dear reader, for each entry below, please note its activity coefficient.
1. CCCCO [butan-1-ol] + CCOS(=O)(=O)[O-].CCn1cc[n+](C)c1
2. CCO [ethanol] + CCn1cc[n+](C)c1.COS(=O)(=O)[O-]

Out:
1.19
0.303

====

assay: activity coefficient (dimensionless); of the first substance listed, at infinite dilution; xn = mol fraction of the nth substance listed; details: 313.15 K; 101 kPa; Liquid; dilutor technique; x1 = 0
Would you kindly list activity coefficient for each of these compounds?
Numbers only.

Worked cases, answers included:
In: Looking for the measured activity coefficient of CC(C)O [propan-2-ol] + CCOS(=O)(=O)[O-].CCn1cc[n+](C)c1 , can you help?
Out: 1.31

In: CCO [ethanol] + CCOS(=O)(=O)[O-].CCn1cc[n+](C)c1 ?
Out: 0.783

In: Also check CCCCO [butan-1-ol] + CCOS(=O)(=O)[O-].CCn1cc[n+](C)c1
Out: 1.93

In: Item: CCO [ethanol] + CCn1cc[n+](C)c1.O=S(=O)([O-])O
Out: 0.426

In: Try the compound CCCO [propan-1-ol] + CCOS(=O)(=O)[O-].CCn1cc[n+](C)c1
Out: 1.2

In: Item: CO [methanol] + CCOS(=O)(=O)[O-].CCn1cc[n+](C)c1
Out: 0.419

Let us move to another entry and its activity coefficient.
In: I am curious: what activity coefficient value has been reported for CCC(C)O (configuration not stated) [butan-2-ol] + CCOS(=O)(=O)[O-].CCn1cc[n+](C)c1 ?
Out: 1.83

====

assay: activity coefficient (dimensionless); of the first substance listed, at infinite dilution; xn = mol fraction of the nth substance listed; conditions: 323.15 K; 101 kPa; Liquid; dilutor technique; x1 = 0
Hi there, I'd appreciate the recorded activity coefficient for every entry that follows.
One number for each entry.

In: GET /values?readout=activity coefficient&item= CCCCO [butan-1-ol] + CCOS(=O)(=O)[O-].CCn1cc[n+](C)c1
Out: 1.65

In: Entry to check: CCCCO [butan-1-ol] + CCn1cc[n+](C)c1.COS(=O)(=O)[O-]
Out: 2.62

In: And what about the compound CO [methanol] + CCn1cc[n+](C)c1.COS(=O)(=O)[O-] ?
Out: 0.257

In: Same question, CC(C)O [propan-2-ol] + CCn1cc[n+](C)c1.COS(=O)(=O)[O-] this time
Out: 1.33

In: Lookup CCCO [propan-1-ol] + CCOS(=O)(=O)[O-].CCn1cc[n+](C)c1
Out: 1.03

In: One more compound: CO [methanol] + CCOS(=O)(=O)[O-].CCn1cc[n+](C)c1
Out: 0.406

Value sought for every listed compound: activity coefficient.
1. CC(C)O [propan-2-ol] + CCn1cc[n+](C)c1.O=S(=O)([O-])O
2. CCC(C)O (stereo not given) [butan-2-ol] + CCn1cc[n+](C)c1.COS(=O)(=O)[O-]
3. CCO [ethanol] + CCn1cc[n+](C)c1.COS(=O)(=O)[O-]
4. CCC(C)O (stereo not given) [butan-2-ol] + CCOS(=O)(=O)[O-].CCn1cc[n+](C)c1

Out:
1. 0.577
2. 4.02
3. 0.449
4. 1.69

====

Would you mind telling me the reported activity coefficient of each entry?
assay: activity coefficient (dimensionless); of the first substance listed, at infinite dilution; xn = mol fraction of the nth substance listed; details: 333.15 K; 101 kPa; Liquid; dilutor technique; x1 = 0
Numbers only.

Below, 8 compounds whose answers are already recorded.
In: What does the record list as activity coefficient for CCC(C)O (configuration not stated) [butan-2-ol] + CCn1cc[n+](C)c1.COS(=O)(=O)[O-] ?
Out: 3.11

In: Next entry: CO [methanol] + CCn1cc[n+](C)c1.O=S(=O)([O-])O
Out: 0.078

In: Would you mind doing CO [methanol] + CCn1cc[n+](C)c1.COS(=O)(=O)[O-] as well?
Out: 0.203

In: Now consider CCC(C)O (configuration not stated) [butan-2-ol] + CCOS(=O)(=O)[O-].CCn1cc[n+](C)c1 and answer again.
Out: 1.56

In: Entry to check: CCO [ethanol] + CCOS(=O)(=O)[O-].CCn1cc[n+](C)c1
Out: 0.6

In: Record: CCCCO [butan-1-ol] + CCn1cc[n+](C)c1.COS(=O)(=O)[O-]
Out: 2.4

In: What would you report for CO [methanol] + CCOS(=O)(=O)[O-].CCn1cc[n+](C)c1 ?
Out: 0.41

In: And the next one, CCO [ethanol] + CCn1cc[n+](C)c1.COS(=O)(=O)[O-] ?
Out: 0.398

Would you mind listing activity coefficient for each of the following compounds?
1. CCC(C)O (configuration not stated) [butan-2-ol] + CCn1cc[n+](C)c1.O=S(=O)([O-])O
2. CC(C)O [propan-2-ol] + CCn1cc[n+](C)c1.O=S(=O)([O-])O
3. CCCO [propan-1-ol] + CCn1cc[n+](C)c1.COS(=O)(=O)[O-]
4. CC(C)O [propan-2-ol] + CCn1cc[n+](C)c1.COS(=O)(=O)[O-]
5. CCO [ethanol] + CCn1cc[n+](C)c1.O=S(=O)([O-])O
6. CCCO [propan-1-ol] + CCOS(=O)(=O)[O-].CCn1cc[n+](C)c1

Out:
[0.76, 0.356, 0.975, 1.17, 0.177, 0.914]

====

Would you mind telling me the reported activity coefficient of each entry?
assay: activity coefficient (dimensionless); of the first substance listed, at infinite dilution; xn = mol fraction of the nth substance listed; conditions: 343.15 K; 101 kPa; Liquid; dilutor technique; x1 = 0
One number for each entry.

// below: answered compounds
In: Look up activity coefficient for this compound: CCC(C)O (stereo not drawn) [butan-2-ol] + CCOS(=O)(=O)[O-].CCn1cc[n+](C)c1
Out: 1.62

In: Same read-out for CCCO [propan-1-ol] + CCn1cc[n+](C)c1.O=S(=O)([O-])O ?
Out: 0.233

Kindly review the next compound as well.
In: So what does the record say about activity coefficient for CCCO [propan-1-ol] + CCOS(=O)(=O)[O-].CCn1cc[n+](C)c1 ?
Out: 0.855
